# activity coefficient listing for each entry below
protocol: activity coefficient (dimensionless); of the first substance listed, at infinite dilution; xn = mol fraction of the nth substance listed
test.settings: 303.15 K; Liquid; dilutor; x1 = 0
observable: activity coefficient

compound | observed
C1CCCC1 [cyclopentane] + CCCCCC[n+]1ccn(C)c1.O=S(=O)([N-]S(=O)(=O)C(F)(F)F)C(F)(F)F | 3.64
C1=CCCC1 [cyclopentene] + CCCCCCCCn1cc[n+](C)c1.O=S(=O)([N-]S(=O)(=O)C(F)(F)F)C(F)(F)F | 1.86
C=CCCCCCC [oct-1-ene] + CCCCCC[n+]1ccn(C)c1.O=S(=O)([N-]S(=O)(=O)C(F)(F)F)C(F)(F)F | 8.28
